target: human vanilloid-1 (hVR-1) in hVR-1-HEK293 cell line (Homo sapiens); assay: Inhibitory effect on calcium influx via a vanilloid receptor (capsaicin-stimulated, Fluo-3/AM); settings: hVR-1-HEK293 cells, 1 μM of capsaicin, compounds 0.015˜2000 nM; read-out: I.A. (inhibitory activity), IC50 on intracellular calcium influx
Entries and their IC50

Some solved cases for reference:
molecule="Cc1ccc(N2c3cccc(-c4nc5c(Br)cc(Br)cc5[nH]4)c3OC[C@@H]2CO)nc1 [Example 42]" assayed_target="human vanilloid-1 (hVR-1) in hVR-1-HEK293 cell line (Homo sapiens)" observed_value="20 to 100 nM"
molecule="Cc1ccc(N2CCOc3c(-c4nc5cc(Cl)ccc5[nH]4)cccc32)nc1 [Example 27]" assayed_target="human vanilloid-1 (hVR-1) in hVR-1-HEK293 cell line (Homo sapiens)" observed_value="101 to 500 nM"

// next item, IC50 requested
QUERY: Dear colleague, please send me the reported IC50 for FC(F)(F)c1ccc2nc(-c3cccc4c3OCCN4c3ccc(Cl)cn3)[nH]c2c1 [Example 20] when you can.
RESULT: 20 to 100 nM

* * *

Entries and their pIC50
molecular target: human vanilloid-1 (hVR-1) in hVR-1-HEK293 cell line (Homo sapiens); construct: expressed in transfected cells; host or cells: HEK293 Tet-on strain, doxycycline-induced; experiment: Inhibitory effect on calcium influx via a vanilloid receptor (capsaicin-stimulated, Fluo-3/AM); type: cell-based; details: hVR-1-HEK293 cells, 1 μM of capsaicin, compounds 0.015˜2000 nM; read-out: I.A. (inhibitory activity), IC50 on intracellular calcium influx
pIC50: −log10 of the molar value.

Some solved cases for reference:
compound="C=Cc1ccc(N2c3cccc(-c4nc5ccc(C(C)(C)C)cc5[nH]4)c3OC[C@@H]2CO)nc1 [Example 57]" observed_value="7.00 to 7.70"
compound="CC(C)(C)c1ccc2nc(-c3cccc4c3OCCN4c3ccc(C(F)(F)F)cn3)[nH]c2c1 [Example 8]" observed_value="6.30 to 7.00"
compound="C=Cc1ccc(N2c3cccc(-c4nc5c(C(F)(F)F)cc(C(F)(F)F)cc5[nH]4)c3OC[C@@H]2CO)nc1 [Example 71]" observed_value="6.30 to 7.00"

// next item, pIC50 requested
QUERY: Fetch value of pIC50 on human vanilloid-1 (hVR-1) in hVR-1-HEK293 cell line (Homo sapiens) for COC[C@H]1COc2c(-c3nc4ccc(Br)cc4[nH]3)cccc2N1c1ccc(C)cn1 [Example 89] .
RESULT: > 7.70

* * *

Entries and their pIC50
Target: human vanilloid-1 (hVR-1) in hVR-1-HEK293 cell line (Homo sapiens, UniProt Q8NER1)
Sequence (Q8NER1 whole entry): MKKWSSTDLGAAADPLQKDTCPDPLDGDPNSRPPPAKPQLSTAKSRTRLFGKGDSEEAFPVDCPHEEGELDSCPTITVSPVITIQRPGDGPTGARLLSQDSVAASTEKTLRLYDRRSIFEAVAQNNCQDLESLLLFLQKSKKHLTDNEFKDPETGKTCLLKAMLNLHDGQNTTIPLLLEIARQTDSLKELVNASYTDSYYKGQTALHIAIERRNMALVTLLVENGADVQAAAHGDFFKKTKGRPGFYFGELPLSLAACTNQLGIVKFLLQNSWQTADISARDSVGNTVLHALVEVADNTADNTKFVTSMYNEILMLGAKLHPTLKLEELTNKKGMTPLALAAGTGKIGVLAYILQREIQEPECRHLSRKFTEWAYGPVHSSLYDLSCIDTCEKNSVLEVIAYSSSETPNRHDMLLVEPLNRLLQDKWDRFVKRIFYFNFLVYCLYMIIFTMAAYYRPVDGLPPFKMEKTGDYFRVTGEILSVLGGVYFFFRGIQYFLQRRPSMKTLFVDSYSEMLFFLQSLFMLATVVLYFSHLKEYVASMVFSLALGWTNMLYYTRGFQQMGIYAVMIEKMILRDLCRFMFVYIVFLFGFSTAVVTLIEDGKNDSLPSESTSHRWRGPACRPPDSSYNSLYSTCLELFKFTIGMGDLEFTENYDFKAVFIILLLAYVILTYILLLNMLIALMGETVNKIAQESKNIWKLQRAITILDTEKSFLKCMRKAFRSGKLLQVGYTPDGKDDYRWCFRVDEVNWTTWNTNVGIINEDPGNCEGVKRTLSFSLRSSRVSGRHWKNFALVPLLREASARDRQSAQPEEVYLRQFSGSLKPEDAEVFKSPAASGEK
Test: Inhibitory effect on calcium influx via a vanilloid receptor (capsaicin-stimulated, Fluo-3/AM)
Conditions: hVR-1-HEK293 cells, 1 μM of capsaicin, compounds 0.015˜2000 nM; read-out: I.A. (inhibitory activity), IC50 on intracellular calcium influx
Procedure: The cell line can modulate the expression of VR-1, depending on whether doxycycline, a derivative of tetracycline, is present or not. […] The obtained data were input to the Hill equation represented by the following formula I and the values were analyzed: Intracellular calcium influx= [(fluorescent intensity of experimental group−fluorescent intensity of background)/(fluorescent intensity of positive control−fluorescent intensity of background)]*100 [Formula I] […]
pIC50: −log10 of the molar value.

molecule="CCc1ccc(N2c3cccc(-c4nc5c(Cl)cc(C(F)(F)F)cc5[nH]4)c3OC[C@@H]2CO)nc1 [Example 80]" assayed_target="human vanilloid-1 (hVR-1) in hVR-1-HEK293 cell line (Homo sapiens, UniProt Q8NER1)" observed_value="> 7.70"
molecule="C=Cc1ccc(N2c3cccc(-c4nc5c(F)cc(F)cc5[nH]4)c3OC[C@@H]2CO)nc1 [Example 63]" assayed_target="human vanilloid-1 (hVR-1) in hVR-1-HEK293 cell line (Homo sapiens, UniProt Q8NER1)" observed_value="7.00 to 7.70"

QUERY: Dear colleague, please send me the reported pIC50 for Cc1ccc(N2c3cccc(-c4nc5ccc(Br)cc5[nH]4)c3OC[C@@H]2CO)nc1 [Example 36] when you can.
RESULT: > 7.70

QUERY: Dear colleague, please send me the reported pIC50 for C=Cc1ccc(N2c3cccc(-c4nc5ccc(OC)cc5[nH]4)c3OC[C@@H]2CO)nc1 [Example 72] when you can.
RESULT: 6.00 to 6.30

QUERY: Dear colleague, please send me the reported pIC50 for C=Cc1ccc(N2c3cccc(-c4nc5c(C)cc(Br)cc5[nH]4)c3OC[C@@H]2CO)nc1 [Example 66] when you can.
RESULT: > 7.70

QUERY: Dear colleague, please send me the reported pIC50 for Cc1ccc(N2CCOc3c(-c4nc5c(Br)cc(Br)cc5[nH]4)cccc32)nc1 [Example 32] when you can.
RESULT: 6.30 to 7.00

QUERY: Dear colleague, please send me the reported pIC50 for C=Cc1ccc(N2c3cccc(-c4nc5ccc(C#N)cc5[nH]4)c3OC[C@@H]2CO)nc1 [Example 73] when you can.
RESULT: 6.30 to 7.00

* * *

molecular target: human vanilloid-1 (hVR-1) in hVR-1-HEK293 cell line (Homo sapiens, UniProt Q8NER1); assay: Inhibitory effect on calcium influx via a vanilloid receptor (capsaicin-stimulated, Fluo-3/AM); settings: hVR-1-HEK293 cells, 1 μM of capsaicin, compounds 0.015˜2000 nM; read-out: I.A. (inhibitory activity), IC50 on intracellular calcium influx
pIC50: −log10 of the molar value.
READOUT: pIC50

Some solved cases for reference:
chemical_string=Cc1ccc(N2c3cccc(-c4nc5c(F)cc(F)cc5[nH]4)c3OC[C@@H]2CO)nc1 assayed_target="human vanilloid-1 (hVR-1) in hVR-1-HEK293 cell line (Homo sapiens, UniProt Q8NER1)" observed_value="> 7.70"
chemical_string=C=Cc1ccc(N2c3cccc(-c4nc5ccc(Cl)cc5[nH]4)c3OC[C@@H]2CO)nc1 assayed_target="human vanilloid-1 (hVR-1) in hVR-1-HEK293 cell line (Homo sapiens, UniProt Q8NER1)" observed_value="> 7.70"
chemical_string=CCc1ccc(N2c3cccc(-c4nc5c(Br)cc(C(F)(F)F)cc5[nH]4)c3OC[C@@H]2CO)nc1 assayed_target="human vanilloid-1 (hVR-1) in hVR-1-HEK293 cell line (Homo sapiens, UniProt Q8NER1)" observed_value="> 7.70"

QUERY: Dear colleague, please send me the reported pIC50 for CCc1ccc(N2c3cccc(-c4nc5ccc(C(F)(F)F)cc5[nH]4)c3OC[C@@H]2CO)nc1 when you can.
RESULT: 7.00 to 7.70

QUERY: Dear colleague, please send me the reported pIC50 for Cc1ccc(N2c3cccc(-c4nc5ccc(C(F)(F)F)cc5[nH]4)c3OC[C@@H]2CO)nc1 when you can.
RESULT: > 7.70

QUERY: Dear colleague, please send me the reported pIC50 for Clc1ccc2nc(-c3cccc4c3OCCN4c3ncccc3Cl)[nH]c2c1 when you can.
RESULT: < 6.00

QUERY: Dear colleague, please send me the reported pIC50 for COC[C@H]1COc2c(-c3nc4c(Cl)cc(C(F)(F)F)cc4[nH]3)cccc2N1c1ccc(C)cn1 when you can.
RESULT: > 7.70

QUERY: Dear colleague, please send me the reported pIC50 for CC(C)(C)c1ccc2nc(-c3cccc4c3OCCN4c3ncc(C(F)(F)F)cc3Cl)[nH]c2c1 when you can.
RESULT: 6.30 to 7.00

* * *

target: human vanilloid-1 (hVR-1) in hVR-1-HEK293 cell line (Homo sapiens, UniProt Q8NER1); assay: Inhibitory effect on calcium influx via a vanilloid receptor (capsaicin-stimulated, Fluo-3/AM); conditions: hVR-1-HEK293 cells, 1 μM of capsaicin, compounds 0.015˜2000 nM; read-out: I.A. (inhibitory activity), IC50 on intracellular calcium influx
pIC50: −log10 of the molar value.
READOUT: pIC50

compound="COC[C@H]1COc2c(-c3nc4ccccc4[nH]3)cccc2N1c1ccc(C)cn1 [Example 110]" observed_value="6.30 to 7.00"

QUERY: Fetch value of pIC50 on human vanilloid-1 (hVR-1) in hVR-1-HEK293 cell line (Homo sapiens, UniProt Q8NER1) for CC(C)(C)c1ccc2[nH]c(-c3cccc4c3OCCN4c3ccc(CO)cn3)nc2c1 [Example 15] .
RESULT: 6.30 to 7.00

QUERY: Fetch value of pIC50 on human vanilloid-1 (hVR-1) in hVR-1-HEK293 cell line (Homo sapiens, UniProt Q8NER1) for C=Cc1ccc(N2c3cccc(-c4nc5c(F)cc(Br)cc5[nH]4)c3OC[C@@H]2CO)nc1 [Example 62] .
RESULT: > 7.70

QUERY: Fetch value of pIC50 on human vanilloid-1 (hVR-1) in hVR-1-HEK293 cell line (Homo sapiens, UniProt Q8NER1) for Cc1ccc(N2CCOc3c(-c4nc5c(Br)cc(C(F)(F)F)cc5[nH]4)cccc32)nc1 [Example 31] .
RESULT: 7.00 to 7.70
